Kindly state IC50 for each of the entries shown.
biological target: UniProtKB Q8DQ99; details: read-out: IC50 PBP3; strain IU1945; average ± SEM of two experiments
Sequence (Q8DQ99 23-413): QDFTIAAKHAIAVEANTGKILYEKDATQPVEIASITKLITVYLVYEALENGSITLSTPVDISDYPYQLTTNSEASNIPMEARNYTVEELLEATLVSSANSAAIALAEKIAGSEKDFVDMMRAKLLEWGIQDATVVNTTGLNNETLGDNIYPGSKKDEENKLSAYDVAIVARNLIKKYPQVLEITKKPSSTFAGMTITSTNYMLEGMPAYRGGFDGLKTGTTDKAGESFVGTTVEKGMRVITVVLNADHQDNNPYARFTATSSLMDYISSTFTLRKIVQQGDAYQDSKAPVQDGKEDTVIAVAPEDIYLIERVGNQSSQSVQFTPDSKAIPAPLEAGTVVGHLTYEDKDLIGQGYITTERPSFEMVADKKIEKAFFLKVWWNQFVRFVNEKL
Numbers only, in nM.

Example results:
- C[C@@H](O)[C@H]1C(=O)N2C(C(=O)O)=C(SCCN=CN)C[C@H]12: 7
- N[C@@H](C(=O)N[C@@H]1C(=O)N2C(C(=O)O)=C(Cl)CS[C@H]12)c1ccccc1: 34
- CCOc1ccc2ccccc2c1C(=O)N[C@@H]1C(=O)N2[C@@H]1SC(C)(C)[C@@H]2C(=O)O: 125
- C=CC1=C(C(=O)O)N2C(=O)[C@@H](NC(=O)/C(=N\OCC(=O)O)c3csc(N)n3)[C@H]2SC1: 26

Give IC50 for each listed item.
1. CC1(C)S[C@@H]2[C@H](NC(=O)[C@H](C(=O)O)c3ccsc3)C(=O)N2[C@H]1C(=O)O
2. C[C@@H](O)[C@H]1C(=O)N2C(C(=O)O)=C(S[C@@H]3CN[C@H](C(=O)Nc4cccc(C(=O)O)c4)C3)[C@H](C)[C@H]12
3. CC1(C)S[C@@H]2[C@H](NC(=O)C(C(=O)O)c3ccccc3)C(=O)N2[C@H]1C(=O)O (stereo partly shown)
4. CO[C@@]1(NC(=O)C2SC(=C(C(N)=O)C(=O)O)S2)C(=O)N2C(C(=O)O)=C(CSc3nnnn3C)CS[C@@H]21 (stereo partly shown)
5. Cc1onc(-c2ccccc2Cl)c1C(=O)N[C@@H]1C(=O)N2[C@@H]1SC(C)(C)[C@@H]2C(=O)O

**A:**
1: 146; 2: 61; 3: 18; 4: 69; 5: 102

Give IC50 for each listed item.
1. C[C@@H](O)[C@H]1C(=O)N2C(C(=O)[O-])=C(SC3Cn4cnc[n+]4C3)[C@H](C)[C@H]12 (stereo partly shown)
2. COCC1=C(C(=O)O)N2C(=O)[C@@H](NC(=O)/C(=N\OC)c3csc(N)n3)[C@H]2SC1
3. Cc1onc(-c2c(Cl)cccc2Cl)c1C(=O)N[C@@H]1C(=O)N2[C@@H]1SC(C)(C)[C@@H]2C(=O)O
4. CC1(C)S[C@@H]2[C@H](NC(=O)[C@H](NC(=O)N3CCNC3=O)c3ccccc3)C(=O)N2[C@H]1C(=O)O

**A:**
[6, 32, 65, 65]

---

target: PBP1a (Streptococcus pneumoniae); assay: cell-based; assay type: binding; conditions: IC50 PBPla, Δpbp1b mutant strain; average ± SEM
Sequence (Q8DR59 whole entry): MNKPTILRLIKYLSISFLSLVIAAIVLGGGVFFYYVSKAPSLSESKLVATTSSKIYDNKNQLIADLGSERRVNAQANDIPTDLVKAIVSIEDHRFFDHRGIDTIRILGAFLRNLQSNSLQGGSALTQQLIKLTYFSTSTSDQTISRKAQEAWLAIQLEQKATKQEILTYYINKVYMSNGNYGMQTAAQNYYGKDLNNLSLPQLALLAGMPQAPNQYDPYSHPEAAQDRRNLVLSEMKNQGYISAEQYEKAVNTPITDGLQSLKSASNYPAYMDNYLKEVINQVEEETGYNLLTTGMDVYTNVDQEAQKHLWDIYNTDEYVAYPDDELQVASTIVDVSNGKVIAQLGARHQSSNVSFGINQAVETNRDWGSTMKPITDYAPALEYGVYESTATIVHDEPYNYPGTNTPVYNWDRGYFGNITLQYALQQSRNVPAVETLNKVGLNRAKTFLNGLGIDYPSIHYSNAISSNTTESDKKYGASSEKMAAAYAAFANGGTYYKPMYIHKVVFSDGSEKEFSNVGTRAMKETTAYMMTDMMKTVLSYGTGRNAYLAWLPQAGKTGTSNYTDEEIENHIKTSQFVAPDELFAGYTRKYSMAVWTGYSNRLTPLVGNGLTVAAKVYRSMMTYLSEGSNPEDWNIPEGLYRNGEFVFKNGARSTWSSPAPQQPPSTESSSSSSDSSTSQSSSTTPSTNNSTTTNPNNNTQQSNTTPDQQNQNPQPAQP
Kindly state pIC50 for each of the entries shown.
Give bare numbers, as −log10 of the molar value.

Example results:
• Cc1onc(-c2c(F)cccc2Cl)c1C(=O)N[C@@H]1C(=O)N2[C@@H]1SC(C)(C)[C@@H]2C(=O)O = 4.96
• COCC1=C(C(=O)O)N2C(=O)[C@@H](NC(=O)/C(=N\OC)c3csc(N)n3)[C@H]2SC1 = 5.56

Consider the record given below.
Entry C[C@@H](O)[C@H]1C(=O)N2C(C(=O)O)=C(S[C@@H]3CN[C@H](C(=O)Nc4cccc(C(=O)O)c4)C3)[C@H](C)[C@H]12 , pIC50 reported as 7.42

---

target: PBP2a (Streptococcus pneumoniae); assay: cell-based; format: binding; settings: Δpbp1a mutant strain, average ± SEM
Sequence (Q8DNB6 whole entry): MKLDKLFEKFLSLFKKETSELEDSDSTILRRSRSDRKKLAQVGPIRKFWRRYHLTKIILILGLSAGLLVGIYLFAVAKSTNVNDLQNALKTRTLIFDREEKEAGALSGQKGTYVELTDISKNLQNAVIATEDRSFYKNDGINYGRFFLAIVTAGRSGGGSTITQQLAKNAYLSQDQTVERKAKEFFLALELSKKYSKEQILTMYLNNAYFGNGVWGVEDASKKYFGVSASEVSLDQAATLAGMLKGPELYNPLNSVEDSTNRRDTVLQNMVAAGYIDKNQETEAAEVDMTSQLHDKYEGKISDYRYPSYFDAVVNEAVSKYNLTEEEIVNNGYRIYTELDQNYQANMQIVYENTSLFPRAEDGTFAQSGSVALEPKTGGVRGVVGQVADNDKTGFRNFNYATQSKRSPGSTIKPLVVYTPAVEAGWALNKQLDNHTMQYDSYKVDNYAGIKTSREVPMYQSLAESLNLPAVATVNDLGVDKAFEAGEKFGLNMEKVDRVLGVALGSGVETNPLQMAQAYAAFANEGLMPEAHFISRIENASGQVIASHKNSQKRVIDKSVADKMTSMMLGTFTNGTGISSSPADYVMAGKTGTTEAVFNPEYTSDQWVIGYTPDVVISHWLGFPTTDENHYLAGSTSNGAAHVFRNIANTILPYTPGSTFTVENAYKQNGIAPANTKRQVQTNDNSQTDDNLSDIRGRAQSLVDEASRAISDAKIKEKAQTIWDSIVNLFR
endpoint: IC50 (µM)
One number for each entry, in µM.

* Cc1onc(-c2c(F)cccc2Cl)c1C(=O)N[C@@H]1C(=O)N2[C@@H]1SC(C)(C)[C@@H]2C(=O)O | 16

Entry COCC1=C(C(=O)O)N2C(=O)[C@@H](NC(=O)/C(=N\OC)c3csc(N)n3)[C@H]2SC1 , IC50 reported as 0.621

Cited source for all entries: paper PMC9115913
